Recorded % Parent of drug-related material values for a group of molecules are listed next.
Molecular target: aldehyde oxidase (Homo sapiens)
Construct: endogenous in cells; host or cells: cryopreserved primary human hepatocytes
Sequence (Q06278 1-1338): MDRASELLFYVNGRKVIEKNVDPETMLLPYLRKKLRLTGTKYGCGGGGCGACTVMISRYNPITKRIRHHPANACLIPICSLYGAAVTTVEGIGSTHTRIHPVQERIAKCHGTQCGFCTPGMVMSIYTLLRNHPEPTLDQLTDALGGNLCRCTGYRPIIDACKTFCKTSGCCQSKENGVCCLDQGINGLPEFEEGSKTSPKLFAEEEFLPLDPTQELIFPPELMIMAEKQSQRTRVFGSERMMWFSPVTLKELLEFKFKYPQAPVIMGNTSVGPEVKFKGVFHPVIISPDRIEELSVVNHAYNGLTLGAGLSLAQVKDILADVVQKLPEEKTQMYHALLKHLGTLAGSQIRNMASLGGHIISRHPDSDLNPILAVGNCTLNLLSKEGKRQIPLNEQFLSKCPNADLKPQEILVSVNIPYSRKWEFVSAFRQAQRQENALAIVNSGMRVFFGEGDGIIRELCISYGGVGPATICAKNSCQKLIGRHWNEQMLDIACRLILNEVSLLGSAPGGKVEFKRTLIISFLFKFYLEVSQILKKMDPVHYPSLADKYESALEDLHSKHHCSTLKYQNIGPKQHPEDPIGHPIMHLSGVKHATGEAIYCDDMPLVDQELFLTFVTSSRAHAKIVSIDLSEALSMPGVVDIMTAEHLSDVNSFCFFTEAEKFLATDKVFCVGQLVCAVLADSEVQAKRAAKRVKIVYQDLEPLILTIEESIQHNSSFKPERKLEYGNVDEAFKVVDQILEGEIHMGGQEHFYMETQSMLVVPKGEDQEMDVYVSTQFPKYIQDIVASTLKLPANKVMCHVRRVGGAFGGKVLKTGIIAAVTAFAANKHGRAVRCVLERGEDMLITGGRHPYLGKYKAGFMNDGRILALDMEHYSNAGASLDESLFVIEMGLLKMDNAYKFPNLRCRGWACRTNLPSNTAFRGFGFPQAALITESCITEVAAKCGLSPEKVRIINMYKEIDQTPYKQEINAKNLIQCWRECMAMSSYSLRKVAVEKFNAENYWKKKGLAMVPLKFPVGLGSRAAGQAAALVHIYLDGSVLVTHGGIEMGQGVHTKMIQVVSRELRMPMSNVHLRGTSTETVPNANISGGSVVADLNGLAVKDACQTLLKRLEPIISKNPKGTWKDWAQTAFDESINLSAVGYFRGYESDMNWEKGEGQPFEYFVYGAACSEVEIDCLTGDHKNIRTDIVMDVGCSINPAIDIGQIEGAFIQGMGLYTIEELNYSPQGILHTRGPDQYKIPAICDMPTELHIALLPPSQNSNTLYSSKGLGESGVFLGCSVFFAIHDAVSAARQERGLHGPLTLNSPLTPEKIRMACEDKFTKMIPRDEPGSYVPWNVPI
Experiment: In vitro metabolite profiling in primary human hepatocytes with or without hydralazine
Format: in vitro ADME
Conditions: 1 μM test compound

[
  {
    "chemicalStructure": "Cc1cc(NC(=O)c2nccnc2N2CC(Oc3cc(F)cc(F)c3)C2)cnn1",
    "testSystem": "aldehyde oxidase (Homo sapiens)",
    "% Parent of drug-related material (%)": 15
  },
  {
    "chemicalStructure": "Cc1cc(NC(=O)c2nccnc2N2CC(Oc3cc(F)cc(Cl)c3)C2)cnn1",
    "testSystem": "aldehyde oxidase (Homo sapiens)",
    "% Parent of drug-related material (%)": 91
  },
  {
    "chemicalStructure": "Cc1cc(NC(=O)c2nccnc2N2CC(Oc3ccc(F)c(F)c3)C2)cnn1",
    "testSystem": "aldehyde oxidase (Homo sapiens)",
    "% Parent of drug-related material (%)": 93
  },
  {
    "chemicalStructure": "Cc1cc(NC(=O)c2nccnc2N2CC(Oc3cc(F)c(F)c(Cl)c3)C2)cnn1",
    "testSystem": "aldehyde oxidase (Homo sapiens)",
    "% Parent of drug-related material (%)": 94
  },
  {
    "chemicalStructure": "CCc1cc(NC(=O)c2nccnc2N2CC(Oc3ccc(F)c(F)c3)C2)cnn1",
    "testSystem": "aldehyde oxidase (Homo sapiens)",
    "% Parent of drug-related material (%)": 80
  },
  {
    "chemicalStructure": "O=C(Nc1ccnnc1)c1nccnc1N1CC(Oc2cc(F)c(F)c(F)c2)C1",
    "testSystem": "aldehyde oxidase (Homo sapiens)",
    "% Parent of drug-related material (%)": 94
  },
  {
    "chemicalStructure": "Cc1cc(NC(=O)c2nccnc2N2CC(Oc3cc(F)c(F)c(F)c3)C2)cnn1",
    "testSystem": "aldehyde oxidase (Homo sapiens)",
    "% Parent of drug-related material (%)": 71
  },
  {
    "chemicalStructure": "Cc1cc(NC(=O)c2nccnc2N2CC(Oc3cc(F)cc(C(F)F)c3)C2)cnn1",
    "testSystem": "aldehyde oxidase (Homo sapiens)",
    "% Parent of drug-related material (%)": 86
  },
  {
    "chemicalStructure": "Cc1cc(NC(=O)c2nccnc2N2CC(Oc3ccc(F)c(F)c3)C2)ncn1",
    "testSystem": "aldehyde oxidase (Homo sapiens)",
    "% Parent of drug-related material (%)": 96
  }
]
